Source listed as patent US12617779B2.

// reported Residual rate per item
assay: Evaluation of conversion rate to active form in buffer solution (Experimental Example 1); assay type: physicochemical; details: pH7.4, 2 hr
The answer is to be given in %; state only the numeric part.

Past entries and their recorded results:
compound | reported
CNC(=O)Oc1cc(O)c2c(=O)cc(-c3ccccc3Cl)oc2c1[C@H]1CCN(C)C[C@H]1O [Comparative Example 2, reference compound] | 0.0
CCCCCCC(=O)O[C@@H]1CN(C)CC[C@@H]1c1c(O)cc(O)c2c(=O)cc(-c3ccccc3Cl)oc12 [Comparative Example 11, reference compound] | 91.3
CCNC(=O)O[C@@H]1CN(C)CC[C@@H]1c1c(O)cc(O)c2c(=O)cc(-c3ccccc3Cl)oc12 [Comparative Example 4, reference compound] | 97.7

According to the records, this compound CNCCN(C)C(=O)Oc1cc(O)c2c(=O)cc(-c3ccccc3Cl)oc2c1[C@H]1CCN(C)C[C@H]1O [Comparative Example 14, reference compound] displays Residual rate of 0.0

Sample C[C@H](N)C(=O)O[C@@H]1CN(C)CC[C@@H]1c1c(O)cc(O)c2c(=O)cc(-c3ccccc3Cl)oc12 [Comparative Example 7, reference compound] ; Residual rate observed: 15.3

Consider CN1CC[C@H](c2c(O)cc(O)c3c(=O)cc(-c4ccccc4Cl)oc23)[C@H](OC(=O)[C@@H](N)CO)C1 [Comparative Example 9, reference compound] . Its measured Residual rate is 56.0

====

experiment: Evaluation of conversion rate to active form in human plasma (Experimental Example 3); type: in vitro ADME; details: Human plasma, 0.2 μmol/L, 37° C., 60 min
endpoint: Residual rate (%) of test compound
The reply should contain only the number, in %.

Reference set, count: 5
compound | Residual rate (%) of test compound
CCN(C[C@@H]1CCCCN1)C(=O)Oc1cc(O)c2c(=O)cc(-c3ccccc3Cl)oc2c1[C@H]1CCN(C)C[C@H]1O [Example 1, ditrifluoroacetate] | 0
CN1CC[C@H](c2c(OC(=O)N(C)C[C@H]3CCCCN3)cc(O)c3c(=O)cc(-c4ccccc4Cl)oc23)[C@H](O)C1 [Example 4] | 4
CCCN(C[C@@H]1CCCCN1)C(=O)Oc1cc(O)c2c(=O)cc(-c3ccccc3Cl)oc2c1[C@H]1CCN(C)C[C@H]1O [Example 5] | 0
CN1CC[C@H](c2c(OC(=O)N(C)C[C@@H]3CCCCN3)cc(O)c3c(=O)cc(-c4ccccc4Cl)oc23)[C@H](O)C1 [Example 3] | 0
CCN(C[C@H]1CCCCN1)C(=O)Oc1cc(O)c2c(=O)cc(-c3ccccc3Cl)oc2c1[C@H]1CCN(C)C[C@H]1O [Example 2] | 2

Measured Residual rate (%) of test compound, CCCN(C[C@H]1CCCCN1)C(=O)Oc1cc(O)c2c(=O)cc(-c3ccccc3Cl)oc2c1[C@H]1CCN(C)C[C@H]1O [Example 6] : 2

====

assay: Evaluation of conversion rate to active form in buffer solution (Experimental Example 1); format: physicochemical; settings: pH5.5, 1 hr, 37° C., 25 umol/L in buffer solution
Cut-off 3% on Production rate of Alvocidib: below means Fulfilled, at or above means Not fulfilled.

Would you please look over these solved cases?
molecule | classification
CCN(CCC1CCCCN1)C(=O)Oc1cc(O)c2c(=O)cc(-c3ccccc3Cl)oc2c1[C@H]1CCN(C)C[C@H]1O (stereo partly shown) | Fulfilled
CN1CC[C@H](c2c(OC(=O)N(C)C[C@@H]3CCCCN3)cc(O)c3c(=O)cc(-c4ccccc4Cl)oc23)[C@H](O)C1 | Fulfilled
CC(C)N(CC1CCCCN1)C(=O)Oc1cc(O)c2c(=O)cc(-c3ccccc3Cl)oc2c1[C@H]1CCN(C)C[C@H]1O (stereo partly shown) | Not fulfilled
CN1CC[C@H](c2c(OC(=O)N(CCCC(F)(F)F)CC3CCCCN3)cc(O)c3c(=O)cc(-c4ccccc4Cl)oc23)[C@H](O)C1 (stereo partly shown) | Not fulfilled
CN1CC[C@H](c2c(OC(=O)N(CCF)CC3CCCCN3)cc(O)c3c(=O)cc(-c4ccccc4Cl)oc23)[C@H](O)C1 (stereo partly shown) | Not fulfilled

// query Hello, is Production rate of Alvocidib of the following molecule strictly smaller than 3%? CCCN(C[C@H]1CCCCN1)C(=O)Oc1cc(O)c2c(=O)cc(-c3ccccc3Cl)oc2c1[C@H]1CCN(C)C[C@H]1O
// result Fulfilled

// query is_below(Production rate of Alvocidib, 3%) for CN1CC[C@H](c2c(OC(=O)N(C)CC3CCCCN3)cc(O)c3c(=O)cc(-c4ccccc4Cl)oc23)[C@H](O)C1 (stereo partly shown) ?
// result Fulfilled

====

experiment: Evaluation of conversion rate to active form in human plasma (Experimental Example 3); assay type: in vitro ADME; details: human, 0 min, 0.2 μmol/L
endpoint: Residual rate (%) of test compound
Give the value; after it, write the unit.

compound | Residual rate (%) of test compound
CCNC(=O)O[C@@H]1CN(C)CC[C@@H]1c1c(O)cc(O)c2c(=O)cc(-c3ccccc3Cl)oc12 [Comparative Example 4, reference compound] | 100%
CN1CC[C@H](c2c(O)cc(O)c3c(=O)cc(-c4ccccc4Cl)oc23)[C@H](OC(=O)[C@@H](N)CO)C1 [Comparative Example 9, reference compound] | 100%

Consider now this further compound.
Documented Residual rate (%) of test compound of CN1CC[C@H](c2c(O)cc(O)c3c(=O)cc(-c4ccccc4Cl)oc23)[C@H](OC(=O)CN)C1 [Comparative Example 8, reference compound] : 100%

====

Experiment: Evaluation of conversion rate to active form in buffer solution (Experimental Example 1)
Format: physicochemical
Settings: pH5.0, 2 hr
Procedure: For Examples 1 to 16 and Comparative Examples 1 to 14, the attrition rate of the test compound and the conversion rate of the test compound to Alvocidib in a buffer solution were calculated by the following method. Examples 1 to 16 and Comparative Examples 1 to 14 were each left in buffer solutions adjusted to pH 5.0, 5.5, 6.0, 6.5, 7.0 and 7.4, respectively, at a concentration of 25 umol/L at 37° C. […]
Would you please tag the item 1 (yes) when its Residual rate is 80% or above, and 0 (no) when it is below?

For orientation, consider the following solved cases.
compound | classification
CCNC(=O)O[C@@H]1CN(C)CC[C@@H]1c1c(O)cc(O)c2c(=O)cc(-c3ccccc3Cl)oc12 [Comparative Example 4, reference compound] | 1 (yes)
CN1CC[C@H](c2c(OC(=O)N(C)CCN)cc(O)c3c(=O)cc(-c4ccccc4Cl)oc23)[C@H](O)C1 [Comparative Example 13, reference compound] | 1 (yes)
C[C@H](N)C(=O)O[C@@H]1CN(C)CC[C@@H]1c1c(O)cc(O)c2c(=O)cc(-c3ccccc3Cl)oc12 [Comparative Example 7, reference compound] | 1 (yes)
CNC(=O)Oc1cc(O)c2c(=O)cc(-c3ccccc3Cl)oc2c1[C@H]1CCN(C)C[C@H]1O [Comparative Example 2, reference compound] | 0 (no)
CC(C)[C@H](N)C(=O)O[C@@H]1CN(C)CC[C@@H]1c1c(O)cc(O)c2c(=O)cc(-c3ccccc3Cl)oc12 [Comparative Example 10, reference compound] | 1 (yes)

Here is the next item to consider.
// query Threshold query (Residual rate >= 80%) on CNCCN(C)C(=O)Oc1cc(O)c2c(=O)cc(-c3ccccc3Cl)oc2c1[C@H]1CCN(C)C[C@H]1O [Comparative Example 14, reference compound]
// result 0 (no)

====

experiment: Stability evaluation of solution formulation (Experimental Example 2); assay type: physicochemical; details: solution formulation, pH5.0, 0 week
endpoint: Residual rate (%)
Report the figure in % without appending any unit label.

compound | u | reported
CN1CC[C@H](c2c(OC(=O)N(C)CCN)cc(O)c3c(=O)cc(-c4ccccc4Cl)oc23)[C@H](O)C1 [Comparative Example 13, reference compound] | % | 98.1

Kindly note the recorded Residual rate for CCCN(C[C@H]1CCCCN1)C(=O)Oc1cc(O)c2c(=O)cc(-c3ccccc3Cl)oc2c1[C@H]1CCN(C)C[C@H]1O [Example 6] , which is 98.7

Quick note, Residual rate for CCCN(C[C@@H]1CCCCN1)C(=O)Oc1cc(O)c2c(=O)cc(-c3ccccc3Cl)oc2c1[C@H]1CCN(C)C[C@H]1O [Example 5] landed at 98.1

Reported Residual rate for CNCCN(C)C(=O)Oc1cc(O)c2c(=O)cc(-c3ccccc3Cl)oc2c1[C@H]1CCN(C)C[C@H]1O [Comparative Example 14, reference compound] was 86.4

# Residual rate of CCN(C[C@H]1CCCCN1)C(=O)Oc1cc(O)c2c(=O)cc(-c3ccccc3Cl)oc2c1[C@H]1CCN(C)C[C@H]1O [Example 2] = 96.4

====

assay: Evaluation of conversion rate to active form in BALB/c mouse plasma (Experimental Example 3); type: in vitro ADME; settings: BALB/c, mouse, 0 min, 0.2 μmol/L
endpoint: Residual rate (%) of test compound

Guide cases for Residual rate (%) of test compound, answers given:
compound | Residual rate (%) of test compound
CC(C)[C@H](N)C(=O)O[C@@H]1CN(C)CC[C@@H]1c1c(O)cc(O)c2c(=O)cc(-c3ccccc3Cl)oc12 [Comparative Example 10, reference compound] | 100%
CCOC(=O)O[C@@H]1CN(C)CC[C@@H]1c1c(O)cc(O)c2c(=O)cc(-c3ccccc3Cl)oc12 [Comparative Example 3, reference compound] | 100%
CCNC(=O)O[C@@H]1CN(C)CC[C@@H]1c1c(O)cc(O)c2c(=O)cc(-c3ccccc3Cl)oc12 [Comparative Example 4, reference compound] | 100%

Form: compound = CN1CC[C@H](c2c(O)cc(O)c3c(=O)cc(-c4ccccc4Cl)oc23)[C@H](OC(=O)CN)C1 [Comparative Example 8, reference compound] ; Residual rate (%) of test compound = 100%

Noted for CCC(=O)O[C@@H]1CN(C)CC[C@@H]1c1c(O)cc(O)c2c(=O)cc(-c3ccccc3Cl)oc12 : its Residual rate (%) of test compound reads 100%
